Value source: PubChem BioAssay

target: Left-right determination factor 2 (Homo sapiens); assay: small molecules binding LEFTY2 protein – biochemical, small-molecule microarray, 635 nm fluorescence scan, primary screen (AID 1110); conditions: higher = more signal
Answer Condition not met if composite z-score is under 0.2, and Condition met if it is 0.2 or more.

- COC(=O)c1ccc(OC)c(/C=C\CC(CCc2ccccc2)OC(C)=O)c1 (centres undefined): Condition not met
- O=C1O[C@H](c2ccccc2)[C@H](c2ccccc2)N2[C@H]1[C@@H](C(=O)N1CCCCCCC1)[C@]1(C(=O)Nc3ccccc31)[C@H]2c1ccc(O)cc1: Condition met

hey, is composite z-score for this one >= 0.2? C=CCC(OC(C)=O)[C@@H]1[C@@H](N(Cc2cc3ccccc3o2)C(=O)Cc2ccc(OC)cc2)c2cc(OCCCO)ccc2N1C(=O)c1ccc(-c2ccccc2)cc1 (some centres undefined)
Condition not met

Dear colleague, could you confirm whether C=C[C@H](C)[C@H](OC(=O)Nc1ccc(SC)cc1)c1ccc(O)c2ccccc12 has composite z-score at or above 0.2?
Condition not met

Assess whether reported composite z-score for COc1ccc(C(=O)Nc2ccc(CN3C(=O)[C@@]4(O[C@@H](CC(=O)N5Cc6ccccc6C[C@H]5CO)[C@H]([Si](C)(C)c5ccc(OC)cc5)[C@H]4C)c4ccccc43)cc2)cc1 sits at 0.2 or higher.
Condition met

Form field: composite z-score at least 0.2? Entry: CC(C)C[C@@H]1NC(=O)[C@@]23C(=O)N[C@@H](Cc4ccccc4)C2[C@H](C)[C@@]2(C)O[C@H]2C3/C=C/C/C=C\CNC(=O)[C@@H]2CCCN2C1=O (some centres undefined)
Condition met

Entry CCCC[C@@H](O)C1=C(COc2ccccc2)Cn2c(=O)n(-c3ccccc3)c(=O)n2[C@H]1CO : is its composite z-score no less than 0.2?
Condition not met

Dear colleague, could you confirm whether COCCOC(=O)N1C(=O)[C@@]2(c3cc(C#Cc4ccc(OC)cc4)ccc31)[C@H](C(=O)N1CCc3cc(OC)c(OC)cc3C1)[C@H]1C(=O)O[C@H](c3ccccc3)[C@H](c3ccccc3)N1[C@@H]2c1ccc(O)cc1 has composite z-score at or above 0.2?
Condition met

Determine whether measured composite z-score meets or exceeds 0.2 for CC(C)CCC[C@@H](C)[C@H]1CC[C@@]2(C)C3=C(CC[C@]12C)[C@@]1(C)CC[C@H](OC(=O)C(C)(C)C)C(C)(C)C1CC3 (some centres undefined)
Condition met

Entry C[N+](C)(C)CCCCNC(=O)[C@H]1C[C@H]2C(=O)NCC(=O)N2[C@H]1c1ccc(O)cc1 : is its composite z-score no less than 0.2?
Condition met

Is composite z-score for C=CCOc1ccc([C@@H]2CC=C(C(=O)OCC)[C@H](c3cccc(Br)c3)N2S(=O)(=O)c2ccc(C)cc2)cc1 at or above 0.2?
Condition not met

Reported composite z-score reaches at least 0.2 for COCCCNC(=O)[C@@]1(Cc2ccccc2)COC(c2ccc(OCCCO)cc2)=N1 ?
Condition not met

Determine whether this compound has composite z-score no lower than 0.2: [N-]=[N+]=Nc1ccccc1C[C@]1(C(=O)NCCN2CCOCC2)N=C(c2ccc(OCCCO)cc2)O[C@H]1c1ccccc1N=[N+]=[N-]
Condition met

Could you verify whether the entry COCCOC(=O)N1C(=O)[C@@]2(c3cc(C#CCCO)ccc31)[C@H](C(=O)NC[C@H](O)c1ccccc1)[C@H]1C(=O)O[C@H](c3ccccc3)[C@H](c3ccccc3)N1[C@@H]2c1ccccc1OCCO shows composite z-score of no less than 0.2?
Condition met
